Entries annotated with measured GI50
# Test system: T-Rex 293 cell line SC3 cells lacking increased expression of androgen receptor protein
# EXPERIMENTAL_PROTOCOL: Cellular growth inhibition assay, T-Rex 293 SC3 cells without doxycycline (CellTiter-Glo, 72 hours)
# Type: cell-based
# TEST_PARAMETERS: 72 h, T-Rex 293 cell line SC3 cells not exposed to doxycycline (lacking increased androgen receptor expression)

Would you please look over these solved cases?
- Cc1sc2c(c1C)C(c1ccc(OC3CC4(CCN(c5ccc(C(=O)N[C@H]6CC[C@H](Oc7ccc(C#N)c(Cl)c7)CC6)nn5)CC4)C3)nc1)=N[C@@H](Cc1ncco1)c1nnc(C)n1-2: 500 to 1500 nM
- Cc1sc2c(c1C)C(c1ccc(-c3ccc(C4CCN(c5ccc(C(=O)NC6CCC(Oc7ccc(C#N)c(Cl)c7)CC6)nn5)CC4)cc3)cc1)=N[C@@H](Cc1ncco1)c1nnc(C)n1-2 (some centres unmarked): > 3000 nM
- CCNC(=O)C[C@@H]1N=C(c2ccc(OCCCOC3CCN(c4ccc(C(=O)N[C@H]5CC[C@H](Oc6ccc(C#N)c(Cl)c6)CC5)nn4)CC3)cc2)c2c(sc(C)c2C)-n2c(C)nnc21: < 500 nM
- Cc1sc2c(c1C)C(c1ccc(CCC3CC4(CCCN(c5ccc(C(=O)N[C@H]6CC[C@H](Oc7ccc(C#N)c(Cl)c7)CC6)nn5)C4)C3)cn1)N[C@@H](Cc1ncco1)c1nnc(C)n1-2 (some centres unmarked): > 3000 nM

Lab note: need GI50 for "CNc1ccc2c(n1)C(c1ccc(OC3CC4(CCN(c5ccc(C(=O)N[C@H]6CC[C@H](Oc7ccc(C#N)c(Cl)c7)CC6)nn5)CC4)C3)cc1)=NCc1onc(C)c1-2" on T-Rex 293 cell line SC3 cells lacking increased expression of androgen receptor protein, anyone have it?
> 3000 nM

----------
Entries annotated with measured GI50
# System: T-Rex 293 cell line SC3 cells lacking increased expression of androgen receptor protein
# EXPERIMENTAL_PROTOCOL: Cellular growth inhibition assay, T-Rex 293 SC3 cells without doxycycline (CellTiter-Glo, 72 hours)
# Assay type: cell-based
# TEST_PARAMETERS: 72 h, T-Rex 293 cell line SC3 cells not exposed to doxycycline (lacking increased androgen receptor expression)

For the compound Cc1sc2c(c1C)C(c1ccc(OC3(C)CC4(CN(c5ccc(C(=O)N[C@H]6CC[C@H](Oc7ccc(C#N)c(Cl)c7)CC6)nn5)C4)C3)cc1)=N[C@@H](Cc1ncco1)c1nnc(C)n1-2 [I-468] , what GI50 is on record?
< 500 nM

----------
Entries annotated with measured GI50
# System: T-Rex 293 cell line SC3 cells lacking increased expression of androgen receptor protein
# EXPERIMENTAL_PROTOCOL: Cellular growth inhibition assay, T-Rex 293 SC3 cells without doxycycline (CellTiter-Glo, 72 hours)
# Assay type: cell-based
# TEST_PARAMETERS: 72 h, T-Rex 293 cell line SC3 cells not exposed to doxycycline (lacking increased androgen receptor expression)

Would you please look over these solved cases?
- Cc1sc2c(c1C)C(c1ccc([C@H]3C[C@H](C4CCN(c5ccc(C(=O)N[C@H]6CC[C@H](Oc7ccc(C#N)c(Cl)c7)CC6)nn5)CC4)C3)cc1)=N[C@@H](Cc1ncco1)c1nnc(C)n1-2: > 3000 nM
- Cc1sc2c(c1C)C(c1ccc(OC3CC4(CCN(c5ccc(C(=O)N[C@H]6CC[C@H](Oc7ccc(C#N)c(Cl)c7)CC6)nc5)CC4)C3)cc1)=N[C@@H](Cc1ncco1)c1nnc(C)n1-2: < 500 nM
- Cc1sc2c(c1C)C(c1ccc(OC3CCC4(C3)CN(c3ccc(C(=O)N[C@H]5CC[C@H](Oc6ccc(C#N)c(Cl)c6)CC5)nn3)CCO4)cc1)=NC1(CC1)c1nnc(C)n1-2 (stereo partly shown): > 3000 nM

Lab note: need GI50 for "Cc1sc2c(c1C)C(c1ccc(O[C@H]3C[C@H](OC4CCN(c5ccc(C(=O)N[C@H]6CC[C@H](Oc7ccc(C#N)c(Cl)c7)CC6)nn5)CC4)C3)cc1)=N[C@@H](Cc1ncco1)c1nnc(C)n1-2" on T-Rex 293 cell line SC3 cells lacking increased expression of androgen receptor protein, anyone have it?
< 500 nM

Lab note: need GI50 for "Cc1sc2c(c1C)C(c1ccc(C#C[C@H]3C[C@]4(CCCN(c5ccc(C(=O)N[C@H]6CC[C@H](Oc7ccc(C#N)c(Cl)c7)CC6)nn5)C4)C3)cc1)=N[C@@H](C)c1nnc(C)n1-2" on T-Rex 293 cell line SC3 cells lacking increased expression of androgen receptor protein, anyone have it?
500 to 1500 nM

Lab note: need GI50 for "Cc1sc2c(c1C)C(c1ccc(CCCN(C)C(=O)c3ccc(C(=O)N[C@H]4CC[C@H](Oc5ccc(C#N)c(Cl)c5)CC4)nn3)cc1)=N[C@@H](Cc1ncco1)c1nnc(C)n1-2" on T-Rex 293 cell line SC3 cells lacking increased expression of androgen receptor protein, anyone have it?
< 500 nM

// provenance: patent US20260109707A1
